assay: qHTS Assay to Identify Small Molecule Activators of BRCA1 Expression; conditions: MCF7-BRCA1-FFLuc reporter, luminescence, 48 h; series mostly up to 46.1 µM; note: nearly all actives have a fitted effect of over 80% in size
Among all 380,000 compounds or so, about 4,000 (1.1%) were called active. About 3% were inconclusive and are not listed. Calls come from the whole dose curve; as a rule, active = well fitted activation curve with a large enough effect; inconclusive = small, poorly fitted or top-dose-only effect; inactive = no such curve, though single readings can be large or run the other way. Shown is part of a subset that was picked to be rich in actives.
Parameter call: string, one of yes = active, no = inactive

[[record]]
compound = "CCOc1ccc(OCC)c(NC(=O)c2c(C)nn(-c3ccccc3)c2-n2cccc2)c1"
class = "no"

[[record]]
compound = "CCc1ccccc1NS(=O)(=O)c1ccc2nc(-c3ccccc3)[nH]c2c1"
class = "no"

[[record]]
compound = "Cc1ccccc1-c1nc(CS(=O)(=O)CC(=O)Nc2cc(Cl)cc(Cl)c2)c(C)o1"
class = "no"

[[record]]
compound = "CN(C(=O)CSc1nc2ccccc2n1Cc1ccccc1C#N)c1ccccc1"
class = "no"


Consider the additional compound presented here.
Hi, do you know how CC(Nc1ccc(-c2nc(-c3ccco3)no2)cc1[N+](=O)[O-])c1ccccc1 (configuration not stated) came out in this test?
no

###

test: qHTS Assay to Identify Small Molecule Activators of BRCA1 Expression; settings: MCF7-BRCA1-FFLuc reporter, luminescence, 48 h; series mostly up to 46.1 µM; note: nearly all actives have a fitted effect of over 80% in size
The campaign covered roughly 380,000 compounds. About 4,000 (1.1%) were called active. Another 3% or so got no clear call; they are omitted. Calls follow the shape of the dose curve; as a rule, active = well fitted activation curve with a large enough effect; inconclusive = small, poorly fitted or top-dose-only effect; inactive = no such curve, though single readings can be large or run the other way. The entries come from a sample that favours actives as a whole.
Parameter call: string, one of active, inactive

Worked cases, answers included:
[[record]]
compound = "S=C(Nc1ccc2c(c1)OCO2)N1CCCC1"
class = "inactive"

[[record]]
compound = "CCC(=O)N1CCc2cc(CNC(=O)Nc3ccccc3Cl)ccc21"
class = "inactive"


Consider the additional compound presented here.
Hi, do you know how `Cc1ccc(-c2nc(C#N)c(NCCCn3ccnc3)o2)cc1` came out in this test?
active

###

test: qHTS Assay to Identify Small Molecule Activators of BRCA1 Expression; conditions: MCF7-BRCA1-FFLuc reporter, luminescence, 48 h; series mostly up to 46.1 µM; note: nearly all actives have a fitted effect of over 80% in size
In all, about 380,000 compounds went through this assay and about 4,000 (1.1%) were called active. Not shown: some 3% with an inconclusive outcome. Calls follow the shape of the dose curve; as a rule, active = well fitted activation curve with a large enough effect; inconclusive = small, poorly fitted or top-dose-only effect; inactive = no such curve, though single readings can be large or run the other way. This is one part of a sample in which actives are shown more often than they occur.
Parameter call: string, one of yes for active, no for inactive

Hi, do you know how `COc1ccc(NC(=O)c2ccc3nc(C(C)C)oc3c2)cc1OC` came out in this test?
no

Hi, do you know how CCC(C)c1ccc(NC(=S)N2CCCC2)cc1 (configuration not stated) came out in this test?
yes

Hi, do you know how `Nc1ccc(N=Nc2ccccc2Cl)c(N)n1` came out in this test?
yes

Hi, do you know how `CCN(C(=O)Cn1cnc2sc(C)c(S(=O)(=O)N3CCN(c4ncccn4)CC3)c2c1=O)c1ccccc1F` came out in this test?
no

###

assay: qHTS Assay to Identify Small Molecule Activators of BRCA1 Expression; settings: MCF7-BRCA1-FFLuc reporter, luminescence, 48 h; series mostly up to 46.1 µM; note: nearly all actives have a fitted effect of over 80% in size
In all, about 380,000 compounds went through this assay and about 4,000 (1.1%) were called active. About 3% were inconclusive and are not listed. Calls come from the whole dose curve; as a rule, active = well fitted activation curve with a large enough effect; inconclusive = small, poorly fitted or top-dose-only effect; inactive = no such curve, though single readings can be large or run the other way. Many of the other results were omitted from the sample, so actives are more common in it than they were.
Parameter call: string, one of y for active, n for inactive

Worked cases, answers included:
[[record]]
compound = "COc1cc2nc(SCC(=O)Nc3ccccc3F)n3nc(-c4ccccc4)nc3c2cc1OC"
class = "n"

[[record]]
compound = "Cc1ccc(C)c(C(C)NC(=O)C2CCCO2)c1 (stereo unspecified)"
class = "n"

[[record]]
compound = "O=C(Cc1cccc2ccccc12)Nc1ccc2oc(-c3ccccc3)nc2c1"
class = "y"


Hi, do you know how CC(Oc1ccc(Cl)cc1)C(=O)OCC(=O)Nc1ncc(Cl)cc1Cl (stereo unspecified) came out in this test?
n

Hi, do you know how `Cc1ccc(NC(=O)c2oc3ccccc3c2NC(=O)Cc2cccs2)cc1` came out in this test?
n

Hi, do you know how `O=C(Cc1cccc2ccccc12)NNC(=O)Nc1ccc(Cl)cc1` came out in this test?
n

Hi, do you know how `CC(C)(C)NC(=O)Cn1nnc(-c2ccccc2Cl)n1` came out in this test?
y

Hi, do you know how O=C(Nc1ccc2c(c1)OCCO2)C(C1CC1)N1CCC(Cc2ccccc2)CC1 (stereo unspecified) came out in this test?
n

Hi, do you know how COc1ccc(C2=NN(C(C)=O)C(c3ccccc3)C2)cc1 (stereo unspecified) came out in this test?
y

Hi, do you know how `N/C(=N\OC(=O)CCC1CCCCC1)c1ccccn1` came out in this test?
y

Hi, do you know how `Cc1cccc(NC(=O)c2nnn(CC(=O)Nc3ccc(C(C)C)cc3)c2N)c1C` came out in this test?
n

Hi, do you know how `C/C(=N/NC(=O)c1ccc(NC(=O)c2ccc(F)cc2)cc1)c1ccccc1` came out in this test?
y

Hi, do you know how `CCc1ccc(NC(=O)Cn2ncn3c(cc4ccccc43)c2=O)cc1` came out in this test?
n

Hi, do you know how `Cc1ccc(-c2nn3c(=O)cc(CN4CCN(S(=O)(=O)c5ccc(Cl)cc5)CC4)nc3s2)cc1` came out in this test?
n

Hi, do you know how `N/C(=N\OC(=O)CC1CCCCC1)c1ccccc1` came out in this test?
n

Hi, do you know how `CCN1CCN(c2ccc(/C=C/c3ccnc4ccccc34)cc2)CC1` came out in this test?
n

// provenance: PubChem BioAssay AID624202
